Data provenance is paper PMC9001736.

- TARGET DESC: T1, ZZ domain of HERC2 (HERC2ZZ, aa 2702–2755 with additional tryptophan at the C-terminus) (human, UniProt O95714 2702-2755)
- T1 chain: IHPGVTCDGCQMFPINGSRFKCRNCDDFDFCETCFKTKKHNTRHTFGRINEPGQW
- ASSAY EXPLANATION: value cited from earlier reference
MEASUREMENT LABEL: Kd (µM)
Please respond with the number in µM and leave the unit unwritten.

// field: Kd; key: ARTKQTARKSTG [histone H3_(1–12) peptide (aa 1–12 of H3)] ; value = 15
